These data points were gathered from patent US20050227980A1.

What melting point was measured for each of the following?

query: If you can, please state the reported melting point value of CN1CCN(c2cc(F)ccc2CC2OCCN(c3ccc(C(C)(C)C)cc3)C2=O)CC1.Cl (stereo not drawn) [Example 29 (+)] .
result: 157.4 to 159.6 °C

query: Endpoint output: melting point of Cc1ccc(N2CCN(C)CC2)c(CC2OCCN(c3ccc(C(C)(C)C)cc3)C2=O)c1 (single isomer, unassigned; (+)) [Example 31 (+)] . Value?
result: 92 to 93 °C

query: Quick one: melting point of CN1CCN(c2cccc(C(F)(F)F)c2C=C2OCCN(c3ccc(C(C)(C)C)cc3)C2=O)CC1.Cl ?
result: 205 °C (dec.)

query: GET /values?readout=melting point&item= CN1CCN(c2cccc(F)c2C=C2OCCN(c3ccc(C(C)(C)C)cc3)C2=O)CC1.Cl
result: 187.5 to 192.6 °C
